Assay: Human HepG2 cell viability assay in 384 well format
Assay type: toxicity, cell-based
Parameters: dose 125 nL, time 70.5 hour; concentration not given beside the values
Conditions: HepG2 cells, read-out: Inhibition
Observation Type: cytotoxicity at 70.5 h (%)
Give just the number in %; leave the unit off.

The examples below pair each entry with its known result.
[[record]]
compound = "COc1ccc(OC)c(C(O)CNC(=O)Nc2ccc(F)cc2F)c1 (configuration not stated)"
test_result = -6.18

[[record]]
compound = "Cn1cccc1C(=O)Nc1cc(F)ccc1OCC1CCCO1 (configuration not stated)"
test_result = -17.4

[[record]]
compound = "CN1CCC2(COCCN(Cc3cccc(C#N)c3)C2)C1 (configuration not stated)"
test_result = -0.504

[[record]]
compound = "CCc1nn(C)c(Cl)c1CN1CCC(Cc2nncn2C)CC1"
test_result = -3.75


Lab book: cytotoxicity at 70.5 h of Cc1nccc(CNC(=O)N(CCCO)C2CCc3ccccc32)n1 (configuration not stated) noted as 30.5

Lab book: cytotoxicity at 70.5 h of `CCCC(=O)N1CCC2(CC1)OCCO2` noted as -2.35

Lab book: cytotoxicity at 70.5 h of `Cc1nc(CN2CCc3cc(C(=O)O)c(N(C)C)nc3CC2)cs1` noted as -5.8

Lab book: cytotoxicity at 70.5 h of `CCn1cc(CN2CCCN(C(=O)C3(C#N)CCCCC3)CC2)cn1` noted as 17.8

Lab book: cytotoxicity at 70.5 h of Cc1ccccc1CCCN1C(=O)CC2(CCSC2)C1=O (configuration not stated) noted as 2.27

Lab book: cytotoxicity at 70.5 h of `Cc1noc(OCc2csc(C)n2)n1` noted as -3.72

Lab book: cytotoxicity at 70.5 h of `CC(=O)NCC1CCN(C(=O)NCc2ccc3c(c2)OCCO3)CC1` noted as -16.3

Lab book: cytotoxicity at 70.5 h of O=S(=O)(N1CCOCC1)N1CCCCC1CCn1cccn1 (configuration not stated) noted as 3.71

----------
Catalogue of compounds with associated cytotoxicity at 70.5 h
Assay: Human HepG2 cell viability assay in 384 well format
Assay type: toxicity, cell-based
Design: dose 125 nL, time 70.5 hour; concentration not given beside the values
Details: HepG2 cells, read-out: Inhibition
Give just the number in %; leave the unit off.

The examples below pair each entry with its known result.
[[record]]
compound = "COCCN1CCO[C@@H]2CN(Cc3ccc(C)o3)C[C@@H]2C1"
test_result = 1.59

[[record]]
compound = "CCc1nc(CN2CCCN(Cc3noc(C4CC4)n3)CC2)cs1"
test_result = -0.776

[[record]]
compound = "CCS(=O)(=O)N1CCC2(CN(C(=O)c3cscn3)C2)C1"
test_result = -3.48

[[record]]
compound = "CCCC(=O)Nc1cnn(CC(=O)Nc2ccc(SC)cc2)c1"
test_result = -5.62

[[record]]
compound = "CC(C)C(=O)N1CCN(C(=O)CCc2nnc(-c3ccccc3)o2)CC1"
test_result = -21.2

[[record]]
compound = "Cc1cnc(-c2cccc(-c3ccn(CCCO)n3)c2)nc1N(C)C"
test_result = -3.76

[[record]]
compound = "CCn1nc(C(C)C)cc1C(=O)N1CC(OCc2ccccc2F)C1"
test_result = 0.716

[[record]]
compound = "O=C(c1cnn(-c2ccccc2F)c1)N1CCN(CCO)CC1"
test_result = -3.38

[[record]]
compound = "c1csc(-c2noc(CNCCn3cccn3)n2)c1"
test_result = -4.45

[[record]]
compound = "CC(=O)N1C[C@@H]2CC[C@H](C1)N(S(=O)(=O)c1ccc(C#N)cc1Cl)C2"
test_result = -12.7


# context switch: different compound, same cytotoxicity at 70.5 h
Lab book: cytotoxicity at 70.5 h of `Cc1ccc(Cl)cc1NS(=O)(=O)c1cc(C(N)=O)n(C)c1` noted as -0.833

----------
Catalogue of compounds with associated cytotoxicity at 70.5 h
Test: Human HepG2 cell viability assay in 384 well format
Format: toxicity, cell-based
Design: dose 125 nL, time 70.5 hour; concentration not given beside the values
Settings: HepG2 cells, read-out: Inhibition
Give just the number in %; leave the unit off.

[[record]]
compound = "COc1cc(CNC(=O)C2CC(=O)N(C(C)C)C2)ccn1 (stereo unspecified)"
observation_type = "cytotoxicity at 70.5 h"
test_result = -16.6

[[record]]
compound = "Cc1nn(C)c(N(C)C)c1CNC1CCOc2ccccc21 (stereo unspecified)"
observation_type = "cytotoxicity at 70.5 h"
test_result = 1.15

[[record]]
compound = "CN(C)CCN1CCO[C@@H]2CN(C(=O)Cc3ccsc3)CC[C@@H]2C1"
observation_type = "cytotoxicity at 70.5 h"
test_result = -8.58

[[record]]
compound = "Cc1ccccc1-c1cc(NC(=O)CC(C)C)n(CCO)n1"
observation_type = "cytotoxicity at 70.5 h"
test_result = 5.13

[[record]]
compound = "CN1CCN(C)C2(CCN(Cc3ccsc3)CC2)C1=O"
observation_type = "cytotoxicity at 70.5 h"
test_result = 16.8

[[record]]
compound = "Cc1occc1-c1nc(-c2cccc(CN3CCOCC3)c2)no1"
observation_type = "cytotoxicity at 70.5 h"
test_result = 0.585

[[record]]
compound = "CC(=O)N1CCN(C(C)c2nnc(CC(C)C)o2)CC1 (stereo unspecified)"
observation_type = "cytotoxicity at 70.5 h"
test_result = -4.1

[[record]]
compound = "N#Cc1cccnc1NCCNC(=O)N1CCCC(C(F)(F)F)C1 (stereo unspecified)"
observation_type = "cytotoxicity at 70.5 h"
test_result = -11.9


Lab book: cytotoxicity at 70.5 h of `COc1cc(C)nc(N2CCN(C(=O)CCc3ccsc3)CC2)n1` noted as -4.26

Lab book: cytotoxicity at 70.5 h of O=S(=O)(C1CC1)N1CCC2(COCc3cnc(-c4cccnc4)nc32)C1 (stereo unspecified) noted as -10.6

Lab book: cytotoxicity at 70.5 h of CCOCC1CN(C(=O)CS(C)(=O)=O)Cc2cnn(C)c21 (stereo unspecified) noted as -14.4

----------
Catalogue of compounds with associated cytotoxicity at 70.5 h
Assay: Human HepG2 cell viability assay in 384 well format
Type: toxicity, cell-based
Parameters: dose 125 nL, time 70.5 hour; concentration not given beside the values
Settings: HepG2 cells, read-out: Inhibition
Give just the number in %; leave the unit off.

[[record]]
compound = "O=C(Cc1ccc(F)cc1)N1CCCC(c2n[nH]c3nccnc23)C1 (stereo not drawn)"
test_result = 11.2

[[record]]
compound = "O=C1c2cc(Br)cc(Br)c2OCC1(CN1CCCC1)CN1CCCC1"
test_result = -1.34

[[record]]
compound = "CS(=O)(=O)c1ccc(CNC(=O)N2CCC(C(N)=O)C2)cc1 (stereo not drawn)"
test_result = 30

[[record]]
compound = "O=C(NCCC1=CCCCC1)Nc1cc(C(F)(F)F)c[nH]c1=O"
test_result = 0.799

[[record]]
compound = "CC(NC(=O)c1cc(N2CCNC2=O)ccc1F)c1ccc(F)cc1 (stereo not drawn)"
test_result = -4.65

[[record]]
compound = "Cc1ccc2nc(C(=O)N3CCC(CCn4cccn4)CC3)cn2c1"
test_result = 16

[[record]]
compound = "CCc1nsc(N2CCN(Cc3ccno3)CC2)n1"
test_result = -0.144

[[record]]
compound = "O=C(C1CCCO1)N1CC[C@@H]2CN(Cc3ccccc3)S(=O)(=O)[C@@H]2CC1 (stereo partly drawn)"
test_result = -6.03

[[record]]
compound = "CCS(=O)(=O)c1ccc2c(c1)OCCO2"
test_result = -0.357

[[record]]
compound = "CCn1cnnc1CNC(=O)c1cc(F)ccc1OC"
test_result = -6.76


Lab book: cytotoxicity at 70.5 h of `O=C1CCN(C(=O)NCCc2c[nH]c3ccc(Cl)cc23)CCN1` noted as -8.44

Lab book: cytotoxicity at 70.5 h of `COc1ccccc1NCC(=O)NCc1cc[nH]n1` noted as 26.9

Lab book: cytotoxicity at 70.5 h of `COc1ccc2ncn(Cc3ncc[nH]3)c(=O)c2c1` noted as 2.5

Lab book: cytotoxicity at 70.5 h of `COCCCNC(=O)CN(C)C(=O)c1cc2cc(C)ccc2nc1C` noted as 3.78

Lab book: cytotoxicity at 70.5 h of O=C1CN(C(=O)c2ccc(F)cc2)CC(O)CN1Cc1cccs1 (stereo not drawn) noted as 1.6

Lab book: cytotoxicity at 70.5 h of `Cc1noc([C@@H]2CC[C@@H]3[C@@H](CCN3S(=O)(=O)c3ccccc3)O2)n1` noted as -14.9

Lab book: cytotoxicity at 70.5 h of `COCCN(C)C[C@@H]1CN(C(=O)C(C)(C)c2ccccc2)C[C@@H]1CO` noted as 12.6

Lab book: cytotoxicity at 70.5 h of `CC(C)c1ncc(-c2cc(C3CCC3)nc(N)c2C#N)cn1` noted as -8.31

Lab book: cytotoxicity at 70.5 h of `CCc1ncc2c(n1)CN(C(=O)CNC(=O)C(C)C)C2` noted as 22.7

Lab book: cytotoxicity at 70.5 h of `Cc1cnn(CCNCc2csc(-c3ccc4c(c3)OCO4)n2)c1` noted as 10.2

Lab book: cytotoxicity at 70.5 h of Cc1nn(C2CCCC2)c2c1C(c1ccc3c(c1)OCO3)SCC(=O)N2 (stereo not drawn) noted as -12.2

Lab book: cytotoxicity at 70.5 h of COc1c(C2CCCN2Cc2cccc(C(N)=O)c2)c(C)nn1C (stereo not drawn) noted as -2.05

Lab book: cytotoxicity at 70.5 h of `CCCn1nnc2c(sc3nc(N4CCOCC4)c4c(c32)CCC4)c1=O` noted as -21.7
